System: U2OS
Test: Multiplex assay against U2OS
Type: toxicity, cell-based
Conditions: human, 24 h, 10 µM, compound concentration 10 uM, replicate 2
In this section, each of the compounds is paired with its reported Population Tubulin-Different-Phenotype (%).
Your answer is read as %, so omit the unit and give the number.

Past entries and their recorded results:
Compound | Units label | Reported measurement
CCOc1cc(N2CCC(O)CC2)ccc1Nc1ncc2c(n1)N(C1CCCC1)CCC(=O)N2C | % | 38
CNC(=O)c1nn(C)c2c1C(C)(C)Cc1cnc(Nc3ccc(N4CCN(C)CC4)cc3)nc1-2 | % | 93
CCn1c(-c2nonc2N)nc2cnc(Oc3cccc(NC(=O)c4ccc(OCCN5CCOCC5)cc4)c3)cc21 [GSK-269962A] | % | 100
CC(=O)c1cc(-c2cc(C(=O)NC3CC3)ccc2C)c2ncccn12 | % | 18
Nc1nc2c(c(N3CCNCC3)n1)CCC1=C2[C@@H]2CCCC[C@@H]2O1 | % | 69

Query: // fetch U2OS Population Tubulin-Different-Phenotype (%) for CCC(=O)O[C@]1(C(=O)SCF)[C@H](C)C[C@H]2[C@@H]3C[C@H](F)C4=CC(=O)C=C[C@]4(C)[C@@]3(F)[C@@H](O)C[C@@]21C [FLUTICASONE PROPIONATE]
Response: 25

Query: // fetch U2OS Population Tubulin-Different-Phenotype (%) for Cc1nc(Cc2cccc(C(F)(F)F)c2)sc1-c1ccc(C(N)=O)nc1 [TP-024n]
Response: 22

Query: // fetch U2OS Population Tubulin-Different-Phenotype (%) for c1ccc2oc(-c3csc(C4CCN(Cc5nc6ncccc6[nH]5)CC4)n3)cc2c1
Response: 33

Reference source: ChEMBL document CHEMBL4689842
